Reference for the values: paper PMC6278385

ASSAY_NOTES: PK in tumor-bearing nude mice after i.v. C118P
Type: in vivo, nude mice (BALB/cA) implanted with NCI-H460 tumor
MEASUREMENT_SETUP: BALB/cA nude, mouse, in vivo, iv; nude mice, plasma, i.v. C118P 75 mg/kg, n = 4; read-out: AUC0-inf
PROPERTY_MEASURED: AUC(0-inf) (ng·h/mL)
Report the figure in ng·h/mL without appending any unit label.

The measured AUC(0-inf) associated with COc1cc(OC)cc(-c2nc[nH]c2-c2ccc(OC)c(OP(=O)([O-])[O-])c2)c1.[Na+].[Na+] [C118P] reads 13500

====

ASSAY_NOTES: PK in rats after i.v. C118P
Assay type: in vivo, SD rats
MEASUREMENT_SETUP: both sexes, SD, rat, iv; rats, plasma, i.v. C118P 5 mg/kg, n = 6
PROPERTY_MEASURED: AUC(0-inf) (ng·h/mL)
Record the value in ng·h/mL, omitting the unit from your answer.

Form: compound = "COc1cc(OC)cc(-c2nc[nH]c2-c2ccc(OC)c(O)c2)c1" ; AUC(0-inf) = 741

====

ASSAY_NOTES: Plasma protein binding by ultrafiltration;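 note: fu expressed in percent not as a fraction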
Assay type: in vitro ADME, Sprague-Dawley rats
MEASUREMENT_SETUP: Sprague-Dawley; rat plasma, C118P 40,000 ng/mL; read-out: fu (fraction unbound)
Procedure: Both C118P and C118 were stable in the plasma with EDTA as anticoagulant. The non-specific binding to the ultrafilter membrane was negligible. The extent of plasma protein binding was reported as a fraction unbound (fu, %) value which was calculated using the formula fu = PF/TC × 100%, where TC is test compound (C118P or C118) concentration in sample before ultrafiltration, and PF is the test compound concentration in the ultrafiltrate (Table 1). […]
PROPERTY_MEASURED: fraction unbound at 1 h, 40000 ng/mL
No unit in the answer, please; the number alone is enough.

The measured fraction unbound at 1 h, 40000 ng/mL associated with COc1cc(OC)cc(-c2nc[nH]c2-c2ccc(OC)c(OP(=O)([O-])[O-])c2)c1.[Na+].[Na+] [C118P] reads 0.024

====

ASSAY_NOTES: Whole blood/plasma ratio
Assay type: in vitro ADME
MEASUREMENT_SETUP: in rat; incubation 30 min
PROPERTY_MEASURED: blood plasma ratio at 30 min

Data point: COc1cc(OC)cc(-c2nc[nH]c2-c2ccc(OC)c(OP(=O)([O-])[O-])c2)c1.[Na+].[Na+] [C118P] ; blood plasma ratio at 30 min = 0.8

====

ASSAY_NOTES: PK in rats after i.v. C118P
Format: in vivo, SD rats
MEASUREMENT_SETUP: both sexes, SD, rat, in vivo; rats, plasma, i.v. C118P 20 mg/kg, n = 6; read-out: C2min (C30s for Rat)
Procedure: The SD rats were supplied by the medical animal experiment center of Chinese People’s Liberation Army Nanjing military region. Twenty-four rats (210–300 g) with half males and half females were divided randomly into four groups. C118P was dissolved in saline to achieve different concentrations for intravenous administration. […] Plasma was prepared by centrifugation at 8000 rpm for 5 min, and the plasma samples were then prepared and determined by the method described above. […]
PROPERTY_MEASURED: concentration at 30 s (µg/mL)
Express your answer in µg/mL, writing the number without its unit.

Per the records, this molecule ( COc1cc(OC)cc(-c2nc[nH]c2-c2ccc(OC)c(OP(=O)([O-])[O-])c2)c1.[Na+].[Na+] [C118P] ) has concentration at 30 s equal to 219
